Listed here: items and their measured pIC50.
Test system: human non-small cell lung cancer NCI-H1975 cell line
runDescription: SRB proliferation assay, NCI-H1975 cells
Assay type: cell-based
measurementParameters: NCI-H1975, SRB, 72 h, read-out: IC50 NCI-H1975
pIC50: −log10 of the molar value.
metricName: pIC50

[[record]]
smilesstructure = "COc1ccc(NC(=O)/C=C/CN(C)C)cc1Nc1ncc(Cl)c(Oc2ccc3ccccc3c2)n1"
recordedresult = 5.69

[[record]]
smilesstructure = "CC(C)Oc1ccc(NC(=O)/C=C/CN(C)C)cc1Nc1ncc(Br)c(Nc2ccc3ccccc3c2)n1"
recordedresult = 5.24

[[record]]
smilesstructure = "COc1ccc(NC(=O)/C=C/CN(C)C)cc1Nc1ncc(F)c(Nc2ccc3ccccc3c2)n1"
recordedresult = 6.43

[[record]]
smilesstructure = "C=CC(=O)Nc1cc(CN2CCN(C)CC2)cc(Nc2ncc(Cl)c(Nc3ccc4ccccc4c3)n2)c1"
recordedresult = 6.88

[[record]]
smilesstructure = "COc1ccc(NC(=O)/C=C/CN(C)C)cc1Nc1ncc(C#N)c(Nc2ccc3ccccc3c2)n1"
recordedresult = 6.49

[[record]]
smilesstructure = "COc1ccc(NC(=O)/C=C/CN(C)C)cc1Nc1ncc(Cl)c(Nc2ccc3[nH]ccc3c2)n1"
recordedresult = 6.54

[[record]]
smilesstructure = "COc1ccc(NC(=O)/C=C/CN2CCCCC2)cc1Nc1ncc(Cl)c(Nc2ccc3ccccc3c2)n1"
recordedresult = 6.50

[[record]]
smilesstructure = "CN(C)C/C=C/C(=O)Nc1ccc(F)c(Nc2ncc(Br)c(Nc3ccc4ccccc4c3)n2)c1"
recordedresult = 6.02


---

targetSystem: EGFR^T790M/L858R (Homo sapiens, UniProt P00533, L858R/T790M)
Sequence (P00533 25-1210 T790M/L858R): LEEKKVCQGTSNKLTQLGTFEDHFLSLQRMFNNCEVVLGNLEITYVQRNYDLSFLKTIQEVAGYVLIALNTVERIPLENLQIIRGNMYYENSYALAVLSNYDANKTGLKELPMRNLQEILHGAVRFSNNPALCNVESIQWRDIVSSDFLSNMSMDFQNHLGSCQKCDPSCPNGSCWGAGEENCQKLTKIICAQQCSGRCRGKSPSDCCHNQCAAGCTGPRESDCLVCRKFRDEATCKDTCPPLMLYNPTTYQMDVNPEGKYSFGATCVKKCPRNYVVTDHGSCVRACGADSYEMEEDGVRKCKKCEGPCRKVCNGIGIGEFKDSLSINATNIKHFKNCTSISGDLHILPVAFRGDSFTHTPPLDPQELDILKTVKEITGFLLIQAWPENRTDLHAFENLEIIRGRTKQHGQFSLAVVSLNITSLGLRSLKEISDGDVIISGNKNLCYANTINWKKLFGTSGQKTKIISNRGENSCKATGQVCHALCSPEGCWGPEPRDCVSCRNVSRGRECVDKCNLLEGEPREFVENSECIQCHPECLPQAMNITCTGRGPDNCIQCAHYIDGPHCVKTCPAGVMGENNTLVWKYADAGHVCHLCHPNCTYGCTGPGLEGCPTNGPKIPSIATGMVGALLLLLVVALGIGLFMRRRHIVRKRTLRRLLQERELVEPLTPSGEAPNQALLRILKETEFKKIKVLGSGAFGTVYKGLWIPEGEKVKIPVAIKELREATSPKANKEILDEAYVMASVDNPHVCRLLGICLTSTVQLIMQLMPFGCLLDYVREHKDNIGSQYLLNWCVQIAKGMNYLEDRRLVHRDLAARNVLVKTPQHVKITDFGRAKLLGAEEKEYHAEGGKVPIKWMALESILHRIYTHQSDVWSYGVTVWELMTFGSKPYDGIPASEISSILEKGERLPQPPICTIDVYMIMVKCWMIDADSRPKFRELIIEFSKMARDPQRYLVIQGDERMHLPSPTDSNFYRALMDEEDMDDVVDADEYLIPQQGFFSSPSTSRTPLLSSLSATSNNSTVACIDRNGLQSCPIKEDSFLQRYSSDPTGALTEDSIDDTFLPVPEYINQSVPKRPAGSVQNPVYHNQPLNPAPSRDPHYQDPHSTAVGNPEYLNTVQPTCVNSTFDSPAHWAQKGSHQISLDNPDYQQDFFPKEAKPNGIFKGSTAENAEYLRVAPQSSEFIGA
runDescription: kinase inhibitory activity test (ELISA), EGFR^T790M/L858R
measurementParameters: ELISA, ATP 5 μM, 1 hour at 37° C.
Quick list: IC50 per entry.
metricName: IC50 (nM)

[[record]]
smilesstructure = "C=CC(=O)Nc1cc(Nc2ncc(Cl)c(Nc3ccc4ccccc4c3)n2)c(OC)cc1N1CC(N(C)C)C1"
recordedresult = 0.6

[[record]]
smilesstructure = "C=CC(=O)Nc1cc(CN(C)CCN(C)C)cc(Nc2ncc(Cl)c(Nc3ccc4ccccc4c3)n2)c1"
recordedresult = 3.9

[[record]]
smilesstructure = "Cc1ccc(Nc2ncc(Cl)c(Nc3ccc4ccccc4c3)n2)cc1NC(=O)/C=C/CN(C)C"
recordedresult = 56.2

[[record]]
smilesstructure = "COc1ccc(NC(=O)/C=C/CN(C)C)cc1Nc1ncc(Cl)c(Oc2ccc3ccccc3c2)n1"
recordedresult = 293


---

targetSystem: EGFR^T790M/L858R (Homo sapiens, UniProt P00533, L858R/T790M)
runDescription: kinase inhibitory activity test (ELISA), EGFR^T790M/L858R
measurementParameters: ELISA, ATP 5 μM, 1 hour at 37° C.
Reported IC50 by item:
metricName: IC50 (nM)

[[record]]
compound = "C=CC(=O)Nc1cc(Nc2ncc(Cl)c(Nc3ccc4ccccc4c3)n2)c(OC)cc1N(C)CCN(C)C [CCB120067]"
recordedresult = 0.4

[[record]]
compound = "COc1ccc(NC(=O)/C=C/CN(C)C)cc1Nc1ncc(Br)c(Nc2ccc3ccccc3c2)n1 [CCB145286]"
recordedresult = 22.5

[[record]]
compound = "COc1ccc(NC(=O)/C=C/CN(C)C)cc1Nc1ncc(C#N)c(Nc2ccc3ccccc3c2)n1 [CCB145293]"
recordedresult = 22.6

[[record]]
compound = "C=CC(=O)Nc1cc(CN2CCCN(C)CC2)cc(Nc2ncc(Cl)c(Nc3ccc4ccccc4c3)n2)c1 [CCB120105]"
recordedresult = 1.2

[[record]]
compound = "COc1ccc(NC(=O)/C=C/CN(C)C)cc1Nc1ncc(C(C)C)c(Nc2ccc3ccccc3c2)n1 [CCB145283]"
recordedresult = 151


---

Recorded IC50 values for a group of compounds are listed next.
System: human epidermal carcinoma A431 cell line
runDescription: SRB proliferation assay, A431 cells
Format: cell-based
measurementParameters: A-431, SRB, 72 h, read-out: IC50 A431
metricName: IC50 (nM)

[[record]]
smilesstructure = "COc1ccc(NC(=O)/C=C/CN(C)C)cc1Nc1ncc(C#N)c(Nc2ccc3ccccc3c2)n1"
metricname = "IC50"
unitabbreviation = "nM"
recordedresult = 1300

[[record]]
smilesstructure = "Cc1ccc(Nc2ncc(Cl)c(Nc3ccc4ccccc4c3)n2)cc1NC(=O)/C=C/CN(C)C"
metricname = "IC50"
unitabbreviation = "nM"
recordedresult = 1040

[[record]]
smilesstructure = "COc1ccc(NC(=O)/C=C/CN(C)C)cc1Nc1ncc(Cl)c(Nc2cnc3ccccc3c2)n1"
metricname = "IC50"
unitabbreviation = "nM"
recordedresult = 646

[[record]]
smilesstructure = "COc1ccc(NC(=O)/C=C/CN(C)C)cc1Nc1nccc(Nc2ccc3ccccc3c2)n1"
metricname = "IC50"
unitabbreviation = "nM"
recordedresult = 1040

[[record]]
smilesstructure = "CCOc1ccc(NC(=O)/C=C/CN(C)C)cc1Nc1ncc(Cl)c(Nc2ccc3ccccc3c2)n1"
metricname = "IC50"
unitabbreviation = "nM"
recordedresult = 6260

[[record]]
smilesstructure = "COc1ccc(NC(=O)/C=C/CN(C)C)cc1Nc1ncc(Cl)c(Nc2ccc3ncccc3c2)n1"
metricname = "IC50"
unitabbreviation = "nM"
recordedresult = 857

[[record]]
smilesstructure = "C=CC(=O)Nc1cc(CN2CCOCC2)cc(Nc2ncc(Cl)c(Nc3ccc4ccccc4c3)n2)c1"
metricname = "IC50"
unitabbreviation = "nM"
recordedresult = 2000


---

Item-by-item account of IC50
System: human epidermal carcinoma A431 cell line
runDescription: SRB proliferation assay, A431 cells
Format: cell-based
measurementParameters: A-431, SRB, 72 h, read-out: IC50 A431
metricName: IC50 (nM)

[[record]]
smilesstructure = "C=CC(=O)Nc1cc(CN2CCCN(C)CC2)cc(Nc2ncc(Cl)c(Nc3ccc4ccccc4c3)n2)c1"
recordedresult = 576

[[record]]
smilesstructure = "COc1ccc(NC(=O)/C=C/CN(C)C)cc1Nc1ncc(F)c(Nc2ccc3ccccc3c2)n1"
recordedresult = 611

[[record]]
smilesstructure = "Cc1cc(NC(=O)/C=C/CN(C)C)cc(Nc2ncc(Cl)c(Nc3ccc4ccccc4c3)n2)c1"
recordedresult = 775

[[record]]
smilesstructure = "C=CC(=O)Nc1cc(Nc2ncc(Cl)c(Nc3ccc4ccccc4c3)n2)c(OC)cc1N1CCCN(C)CC1"
recordedresult = 260

[[record]]
smilesstructure = "C=CC(=O)Nc1cc(CN(C)CCN(C)C)cc(Nc2ncc(Cl)c(Nc3ccc4ccccc4c3)n2)c1"
recordedresult = 535

[[record]]
smilesstructure = "COc1ccc(NC(=O)/C=C/CN(C)C)cc1Nc1ncc(C(F)(F)F)c(Nc2ccc3ccccc3c2)n1"
recordedresult = 1220

[[record]]
smilesstructure = "COc1ccc(NC(=O)/C=C/CN(C)C)cc1Nc1ncc(OC)c(Nc2ccc3ccccc3c2)n1"
recordedresult = 1110

[[record]]
smilesstructure = "C=CC(=O)Nc1cc(CN(C)C)cc(Nc2ncc(Cl)c(Nc3ccc4ccccc4c3)n2)c1"
recordedresult = 37


---

Parameter IC50: see the listing below.
Test system: human epidermal carcinoma A431 cell line
runDescription: SRB proliferation assay, A431 cells
Type: cell-based
measurementParameters: A-431, SRB, 72 h, read-out: IC50 A431
metricName: IC50 (nM)

[[record]]
molecule = "Cc1ccc(NC(=O)/C=C/CN(C)C)cc1Nc1ncc(Cl)c(Nc2ccc3ccccc3c2)n1"
readoutrelation = "="
recordedresult = 1610

[[record]]
molecule = "C=CC(=O)Nc1cc(Nc2ncc(Cl)c(Nc3ccc4ccccc4c3)n2)c(OC)cc1N(C)CCN(C)C"
readoutrelation = "="
recordedresult = 134

[[record]]
molecule = "CN(C)C/C=C/C(=O)Nc1ccc(F)c(Nc2ncc(Cl)c(Nc3ccc4ccccc4c3)n2)c1"
readoutrelation = "="
recordedresult = 20500

[[record]]
molecule = "CC(C)Oc1ccc(NC(=O)/C=C/CN(C)C)cc1Nc1ncc(Br)c(Nc2ccc3ccccc3c2)n1"
readoutrelation = "="
recordedresult = 7580

[[record]]
molecule = "C=CC(=O)Nc1cc(Nc2ncc(Cl)c(Nc3ccc4ccccc4c3)n2)c(OC)cc1N1CCC(N(C)C)CC1"
readoutrelation = "="
recordedresult = 324

[[record]]
molecule = "C=CC(=O)Nc1cc(Nc2ncc(Cl)c(Nc3ccc4ccccc4c3)n2)c(OC)cc1N1CCOCC1"
readoutrelation = ">"
recordedresult = 10000

[[record]]
molecule = "COc1ccc(NC(=O)/C=C/CN(C)C)cc1Nc1ncc(C(C)C)c(Nc2ccc3ccccc3c2)n1"
readoutrelation = "="
recordedresult = 1040

[[record]]
molecule = "C=CC(=O)Nc1cc(CN2CCN(C)CC2)cc(Nc2ncc(Cl)c(Nc3ccc4ccccc4c3)n2)c1"
readoutrelation = "="
recordedresult = 1020

[[record]]
molecule = "CN(C)C/C=C/C(=O)Nc1cccc(Nc2ncc(Br)c(Nc3ccc4ccccc4c3)n2)c1"
readoutrelation = "="
recordedresult = 2590

[[record]]
molecule = "COc1ccc(NC(=O)/C=C/CN(C)C)cc1Nc1ncc(C)c(Nc2ccc3ccccc3c2)n1"
readoutrelation = "="
recordedresult = 839

[[record]]
molecule = "COc1ccc(NC(=O)/C=C/CN(C)C)cc1Nc1ncc(Br)c(Nc2ccc3ccccc3c2)n1"
readoutrelation = "="
recordedresult = 1120

[[record]]
molecule = "Cc1ccc(Nc2ncc(Br)c(Nc3ccc4ccccc4c3)n2)cc1NC(=O)/C=C/CN(C)C"
readoutrelation = "="
recordedresult = 4660

[[record]]
molecule = "COc1ccc(NC(=O)/C=C/CN(C)C)cc1Nc1ncc(Cl)c(Oc2ccc3ccccc3c2)n1"
readoutrelation = "="
recordedresult = 17800

[[record]]
molecule = "COc1cc(F)c(NC(=O)/C=C/CN(C)C)cc1Nc1ncc(Cl)c(Nc2ccc3ccccc3c2)n1"
readoutrelation = "="
recordedresult = 1670

[[record]]
molecule = "Cc1cc(NC(=O)/C=C/CN(C)C)cc(Nc2ncc(Br)c(Nc3ccc4ccccc4c3)n2)c1"
readoutrelation = "="
recordedresult = 942

[[record]]
molecule = "CC(C)Oc1ccc(NC(=O)/C=C/CN(C)C)cc1Nc1ncc(Cl)c(Nc2ccc3ccccc3c2)n1"
readoutrelation = "="
recordedresult = 671

[[record]]
molecule = "C=CC(=O)Nc1cc(Nc2ncc(Cl)c(Nc3ccc4ccccc4c3)n2)c(OC)cc1N1CCN(C(C)=O)CC1"
readoutrelation = "="
recordedresult = 1100

[[record]]
molecule = "C=CC(=O)Nc1ccc(OC)c(Nc2ncc(Cl)c(Nc3ccc4ccccc4c3)n2)c1"
readoutrelation = ">"
recordedresult = 10000

[[record]]
molecule = "COc1ccc(NC(=O)/C=C/CN(C)C)cc1Nc1ncc(Cl)c(Sc2ccc3ccccc3c2)n1"
readoutrelation = "="
recordedresult = 11100

[[record]]
molecule = "CN(C)C/C=C/C(=O)Nc1cccc(Nc2ncc(Cl)c(Nc3ccc4ccccc4c3)n2)c1"
readoutrelation = "="
recordedresult = 6220

[[record]]
molecule = "C=CC(=O)Nc1cc(Nc2ncc(Cl)c(Nc3ccc4ccccc4c3)n2)c(OC)cc1N1CCC(N(C)C)C1 (stereo not shown)"
readoutrelation = "="
recordedresult = 425

[[record]]
molecule = "C=CC(=O)Nc1cc(Nc2ncc(Cl)c(Nc3ccc4ccccc4c3)n2)c(OC)cc1N1CCN(C)CC1"
readoutrelation = "="
recordedresult = 2590

[[record]]
molecule = "C=CC(=O)Nc1cccc(Nc2nc(Nc3ccc(N4CCN(C(C)=O)CC4)cc3OC)ncc2C(F)(F)F)c1 [CO1686, reference compound]"
readoutrelation = "="
recordedresult = 972

[[record]]
molecule = "COc1ccc(NC(=O)/C=C/CN(C)C)cc1Nc1ncc(Cl)c(N(C)c2ccc3ccccc3c2)n1"
readoutrelation = "="
recordedresult = 1080

[[record]]
molecule = "Cc1ccc(NC(=O)/C=C/CN(C)C)cc1Nc1ncc(Br)c(Nc2ccc3ccccc3c2)n1"
readoutrelation = "="
recordedresult = 2190

[[record]]
molecule = "COc1ccc(NC(=O)/C=C/CN2CCCCC2)cc1Nc1ncc(Cl)c(Nc2ccc3ccccc3c2)n1"
readoutrelation = "="
recordedresult = 6930

[[record]]
molecule = "C=CC(=O)Nc1cc(Nc2ncc(Cl)c(Nc3ccc4ccccc4c3)n2)c(OC)cc1N1CC(N(C)C)C1"
readoutrelation = "="
recordedresult = 912

[[record]]
molecule = "COc1ccc(NC(=O)/C=C/CN(C)C)cc1Nc1ncc(Cl)c(Nc2ccc3[nH]ccc3c2)n1"
readoutrelation = "="
recordedresult = 615

[[record]]
molecule = "CCOc1ccc(NC(=O)/C=C/CN(C)C)cc1Nc1ncc(Br)c(Nc2ccc3ccccc3c2)n1"
readoutrelation = "="
recordedresult = 4470

[[record]]
molecule = "CN(C)C/C=C/C(=O)Nc1ccc(F)c(Nc2ncc(Br)c(Nc3ccc4ccccc4c3)n2)c1"
readoutrelation = "="
recordedresult = 12800

[[record]]
molecule = "COc1cc(F)c(NC(=O)/C=C/CN(C)C)cc1Nc1ncc(Br)c(Nc2ccc3ccccc3c2)n1"
readoutrelation = "="
recordedresult = 1790


Cited source for all entries: patent US10059694B2
